# measurementProtocol: Soluble aggregates of transiently expressed antibodies
# Format: physicochemical
# conditionInfo: Protein A purified antibody
# Text: The protein yield of these antibodies, their levels of soluble aggregates and their binding affinity to the immunogen (J1-DE3) are illustrated in (Table 6).
quantity: % soluble aggregate (%)
Only the number, expressed in %, is required.

Req: Please give measured % soluble aggregate of the following entry: J1-183D variant 8: humanised/de-immunised J1-183D: J1-183D_VL_2 + J1-183D_VH_4 (antibody, V domains shown) VH: QVQLVQSGAEVKKPGASVKVSCKASGYTFTDYAIHWVRQAPGQGLEWMGIINTYYGDSKYAQKFQGRVTMTVDTSTSTAYMELSSLRSEDTAVYYCARGYDGFAYWGQGTLVTVSSASTKGP VL: DIQMTQSPSSLSASVGDRVTITCRTSENIYSYLTWYQQKPGKAPKLLIYNAKTLASGVPSRFSGSGSGTDFTLTISSLQPEDFATYYCQHHYDIPWTFGGGTKLEIKRT
Resp: 0.93
